species: Rattus norvegicus; test: DrugMatrix - Regimen: Daily Repeat; type: toxicity, organism-based, Sprague-Dawley; design: regimen Daily Repeat, gender Male, age 6-8 weeks; conditions: in vivo, po, 0 mg/kg, 72 h, tissue Plasma, route oral GAVAGE, dose level Control, time 3 day, vehicle .5 % CMC
Property measured: LACTATE DEHYDROGENASE (u/L)
Lab book: enter the figure in u/L, no units written.

Some solved cases for reference:
>>> numeric_result("CN(C)[C@@H]1C(O)=C(C(N)=O)C(=O)[C@@]2(O)C(O)=C3C(=O)c4c(O)ccc(Cl)c4[C@@](C)(O)[C@H]3C[C@@H]12 [CHLORTETRACYCLINE]")
236.5
>>> numeric_result("O=C1C(CC[S+]([O-])c2ccccc2)C(=O)N(c2ccccc2)N1c1ccccc1 (stereo not given) [SULFINPYRAZONE]")
982.5
>>> numeric_result("O=C1CN=C(c2ccccc2Cl)c2cc([N+](=O)[O-])ccc2N1 [CLONAZEPAM]")
386
>>> numeric_result("O=C1Nc2ccc(Cl)cc2C(c2ccccc2Cl)=NC1O (stereo not given) [LORAZEPAM]")
982.5
>>> numeric_result("COc1cc2nc(N3CCN(C(=O)c4ccco4)CC3)nc(N)c2cc1OC [PRAZOSIN]")
982.5
>>> numeric_result("COC1=C(OC)C(=O)C(CCCCCCCCCCO)=C(C)C1=O [IDEBENONE]")
386
>>> numeric_result("C[C@H]1O[C@@H](n2cc(F)c(=O)[nH]c2=O)[C@H](O)[C@@H]1O [DOXIFLURIDINE]")
386
>>> numeric_result("CN/C(=N/CCSCc1nc[nH]c1C)NC#N [CIMETIDINE]")
386

Reported LACTATE DEHYDROGENASE for Cn1c(=O)c2c(ncn2CC(O)CO)n(C)c1=O (stereo not given) [DYPHYLLINE] : what is it?
236.5

Reported LACTATE DEHYDROGENASE for CCN(CC)CCOc1ccc(/C(=C(/Cl)c2ccccc2)c2ccccc2)cc1 [ENCLOMIPHENE] : what is it?
241.67

---

species on record: Rattus norvegicus; assay: DrugMatrix - Regimen: Daily Repeat; type: toxicity, organism-based, Sprague-Dawley; design: regimen Daily Repeat, gender Male, age 6-8 weeks; settings: in vivo, po, 1500 mg/kg, 120 h, tissue Blood, route oral GAVAGE, dose level High, time 5 day, vehicle .5 % CMC
Property measured: ABSOLUTE MONOCYTE
Answer shape: numeric part, then the unit.

Some solved cases for reference:
>>> result("CC(C)Oc1ccc2c(=O)c(-c3ccccc3)coc2c1")
"47.33 CELLS/uL"
>>> result("CC(C)=CCC/C(C)=C/CO")
"1179 CELLS/uL"
>>> result("COC(=O)Nc1nc2ccc([S+]([O-])c3ccccc3)cc2[nH]1 (stereo not given)")
"35.33 CELLS/uL"
>>> result("CN(C)[C@@H]1C(O)=C(C(N)=O)C(=O)[C@@]2(O)C(O)=C3C(=O)c4c(O)ccc(Cl)c4[C@@](C)(O)[C@H]3C[C@@H]12")
"0 CELLS/uL"

Reported ABSOLUTE MONOCYTE for `O=c1cnn([C@@H]2O[C@H](CO)[C@@H](O)[C@H]2O)c(=O)[nH]1` : what is it?
44.67 CELLS/uL
